target: human mGluR5 receptor (Homo sapiens (Human)); assay: Calcium influx assay based on fluorescence (mGluR5 PAM activity); settings: human mGluR5 receptor-overexpressed HEK293 cell line; L-glutamate EC20; Fluo-4, FLIPR
Sequence (P41594 21-1212): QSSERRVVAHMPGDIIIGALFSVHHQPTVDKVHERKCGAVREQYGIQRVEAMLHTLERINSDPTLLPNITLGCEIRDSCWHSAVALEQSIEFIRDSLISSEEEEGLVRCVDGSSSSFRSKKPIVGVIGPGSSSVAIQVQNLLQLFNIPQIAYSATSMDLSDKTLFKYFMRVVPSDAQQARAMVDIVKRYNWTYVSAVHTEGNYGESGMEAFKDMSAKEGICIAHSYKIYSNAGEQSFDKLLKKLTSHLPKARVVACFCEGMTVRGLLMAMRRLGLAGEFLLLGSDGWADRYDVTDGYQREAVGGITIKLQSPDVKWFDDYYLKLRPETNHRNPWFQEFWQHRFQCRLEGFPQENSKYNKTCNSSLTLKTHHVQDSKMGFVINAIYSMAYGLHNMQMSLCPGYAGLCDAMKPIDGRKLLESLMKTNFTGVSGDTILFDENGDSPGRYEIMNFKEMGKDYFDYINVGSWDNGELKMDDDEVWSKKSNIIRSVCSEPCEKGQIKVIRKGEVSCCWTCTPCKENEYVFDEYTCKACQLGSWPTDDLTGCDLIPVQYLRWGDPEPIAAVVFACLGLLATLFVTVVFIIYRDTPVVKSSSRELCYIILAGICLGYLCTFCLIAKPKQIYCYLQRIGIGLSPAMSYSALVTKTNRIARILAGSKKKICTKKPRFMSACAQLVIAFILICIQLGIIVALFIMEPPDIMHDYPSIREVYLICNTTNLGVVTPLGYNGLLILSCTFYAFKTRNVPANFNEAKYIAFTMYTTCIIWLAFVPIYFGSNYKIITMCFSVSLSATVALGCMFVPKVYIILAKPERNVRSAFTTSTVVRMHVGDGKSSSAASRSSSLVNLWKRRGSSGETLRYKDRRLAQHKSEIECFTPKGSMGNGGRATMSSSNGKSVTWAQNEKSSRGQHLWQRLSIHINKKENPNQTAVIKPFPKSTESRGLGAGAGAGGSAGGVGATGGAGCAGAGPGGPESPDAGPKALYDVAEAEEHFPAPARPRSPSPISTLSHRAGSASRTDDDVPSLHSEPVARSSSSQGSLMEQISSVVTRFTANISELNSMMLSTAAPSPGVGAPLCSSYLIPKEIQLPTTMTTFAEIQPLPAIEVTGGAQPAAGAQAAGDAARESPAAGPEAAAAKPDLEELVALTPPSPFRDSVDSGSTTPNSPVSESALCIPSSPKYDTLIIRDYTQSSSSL
pEC50: −log10 of the molar value.
Property: pEC50

Some compounds with recorded pEC50:
{"Compound": "Oc1cc(F)ccc1-c1cnc2nc(COc3cccc(F)c3)cn2c1", "Endpoint value": "6.30 to 7.00"}
{"Compound": "Oc1ccc(-c2cnc3nc(COc4ccc(F)cc4)cn3c2)cn1", "Endpoint value": "6.30 to 7.00"}
{"Compound": "Fc1ncccc1-c1cnc2nc(COc3ccccc3)cn2c1", "Endpoint value": "6.30 to 7.00"}
{"Compound": "Fc1ccc(-c2cnc3nc(COc4cccnc4)cn3c2)c(F)c1", "Endpoint value": "6.00 to 6.30"}
{"Compound": "Cc1ccc(-c2cnc3nc(COc4ccc(F)cc4)cn3c2)c(N)c1", "Endpoint value": "6.30 to 7.00"}
{"Compound": "Nc1ccccc1-c1cnc2nc(COc3cccc(F)c3)cn2c1", "Endpoint value": "6.30 to 7.00"}
{"Compound": "Cc1cc(F)ccc1-c1cnc2nc(COc3ccnc(F)c3)cn2n1", "Endpoint value": "6.30 to 7.00"}
{"Compound": "COc1ccc(-c2cnc3nc(COc4ccc(F)cc4)cn3c2)nc1", "Endpoint value": "6.30 to 7.00"}
{"Compound": "Fc1ccc(OCc2cn3cc(-c4ccnc(F)c4)cnc3n2)cc1", "Endpoint value": "6.00 to 6.30"}
{"Compound": "COc1cc(C#N)ccc1-c1cnc2nc(COc3cccc(F)c3)cn2c1", "Endpoint value": "6.30 to 7.00"}

Provide reported pEC50 for each item, in the same order as listed.
1. Fc1cccc(OCc2cn3cc(-c4ccnc(F)c4)cnc3n2)c1
2. Nc1cc(F)ccc1-c1cnc2nc(COc3ccnc(F)c3)cn2c1
3. Fc1ccc(OCc2cn3cc(-c4ccncc4Cl)cnc3n2)cc1
4. COc1cncc(-c2cnc3nc(COc4ccc(F)cc4)cn3c2)c1
5. COc1cc(F)ccc1-c1cnc2nc(COc3ccncc3)cn2c1

Output:
1: 6.30 to 7.00; 2: 6.30 to 7.00; 3: 6.00 to 6.30; 4: 6.00 to 6.30; 5: 6.30 to 7.00

Provide reported pEC50 for each item, in the same order as listed.
1. Fc1cc(-c2cnc3nc(COc4ccccc4)cn3c2)ccn1
2. Fc1ccc(-c2cnc3nc(COc4ccccc4)cn3c2)c2c1OCO2
3. COc1c(F)cccc1-c1cnc2nc(COc3ccccn3)cn2c1
4. OCc1cc(C(F)(F)F)ccc1-c1cnc2nc(COc3ccccn3)cn2c1
5. Cc1cc(F)ccc1-c1cnc2nc(COc3ccc(F)cn3)cn2n1
6. COc1cc(F)ccc1-c1cnc2nc(COc3cncc(F)c3)cn2c1
7. Cc1cc(Cl)ccc1-c1cnc2nc(COc3ccccn3)cn2n1

Output:
["6.30 to 7.00", "6.30 to 7.00", "6.30 to 7.00", "6.30 to 7.00", "6.30 to 7.00", "6.30 to 7.00", "6.30 to 7.00"]

Sourced from patent US9745310B2
